# IC50 values compiled below
test system: CEM cells HIV-1 protection, formazan growth assay; experiment: NCI AIDS Antiviral Assay; details: measured here: growth of uninfected CEM cells
Measurement Label: IC50

Compound | Measurement Label | Result Value
CCc1ccccc1NC(=O)CCc1nc(=S)[nH][nH]1 | IC50 | > 912 µM
CCCCN(CCCC)CN1C(=O)/C(=C/c2ccc(NC(C)=O)cc2)NC1=S | IC50 | > 200 µM
NC(=O)c1ncn(C2OC(CO)C(O)C2O)c1NC(=S)NC(=O)c1ccccc1 (stereo unspecified) | IC50 | > 589 µM
NC1=N/N=C(c2ccccc2)\C=C/C(c2ccccc2)=N\1 | IC50 | > 19.1 µM
CC(=O)Nc1c(C#N)c2n(c1C(=O)Nc1ccc(C)cc1)CCC2 | IC50 | > 100 µM
CC1(C)/C(=N\NC(N)=O)C2CCC1C2 (stereo unspecified) | IC50 | > 200 µM
